Experiment: Inhibition of ROCK1 in human GTM3 cells by impedance assay
pEC50: −log10 of the molar value.
Quantity Kind: pEC50

Molecule: Cc1cccc(C(N)c2ccc3sc(-c4ccnc(N)n4)c(C)c3c2)c1 (racemic)
pEC50: 5.72
//
Molecule: COc1ccc(C(N)c2ccc3sc(-c4ccnc(N)n4)c(C)c3c2)cc1 (racemic)
pEC50: 5.59

(A) COc1cccc(C(N)c2ccc3sc(-c4ccnc(N)n4)c(C)c3c2)c1 (racemic)
(B) CCC(N)c1ccc2sc(-c3ccnc(N)n3)c(C)c2c1 (racemic)
(C) CCCC(N)c1ccc2sc(-c3ccnc(N)n3)c(C)c2c1 (racemic)
Rank by pEC50 (largest to smallest). Provide your answer as the labels ordered per the instruction.
C, B, A
(C: 6.22, B: 5.77, A: 5.44)

(I) Cc1c(-c2ccnc(N)n2)sc2ccc(Cc3cccc(O)c3)cc12
(II) Cc1c(-c2ccnc(N)n2)sc2ccc(C(N)c3ccccc3)cc12 (racemic)
From the recorded data, which exceeds the other in pEC50: I or II ? Field: selected label. Fill in the label of the entry you choose.
II

(A) Cc1c(-c2ccnc(N)n2)sc2ccc(C(N)c3cccc(Cl)c3)cc12 (racemic)
(B) Cc1c(-c2ccnc(N)n2)sc2ccc(C(N)CC(C)C)cc12 (racemic)
From the recorded data, which exceeds the other in pEC50: A or B ? Field: selected label. Fill in the label of the entry you choose.
B
(B: 5.85, A: 5.57)

(P) Cc1c(-c2ccnc(N)n2)sc2ccc(C(C)N)cc12 (racemic)
(Q) Cc1c(-c2ccnc(N)n2)sc2ccc(C(N)C(C)C)cc12 (racemic)
Looking at P and Q , which one comes out lower in pEC50 terms? Field: selected label. Fill in the label of the entry you choose.
P
(P: 5.38, Q: 5.68)
